- System: SF-268 CNS
- experimentalProtocol: NCI tumour cell line growth inhibition, 48 h
quantity: TGI

Memo: `Cc1ccnc(NC(=S)Nc2ccc([N+](=O)[O-])cc2)c1` , reported TGI: > 100 µM

----------
- Tested on: SK-MEL-2 melanoma
- experimentalProtocol: NCI tumour cell line growth inhibition, 48 h
Item-by-item account of TGI

Below, each entry is followed by its recorded TGI result.
INSERT INTO assay_data (compound, tgt, reportedmeasurement) VALUES
  ('O=c1[nH]c(=O)n(C2CC(O)C(CO)O2)cc1OS(=O)(=O)C(F)(F)F (stereo not drawn)', 'SK-MEL-2 melanoma', '> 100 µM'),
  ('COc1cc(/C=C2\CCCCC3=C2N=C2SC(C)=CN2C3c2cc(OC)c(OC)c(OC)c2)cc(OC)c1OC (stereo not drawn)', 'SK-MEL-2 melanoma', '> 100 µM'),
  ('O=c1[nH]c(O)c(C=Nc2ccc(-c3nc4ccccc4o3)cc2)c(=O)[nH]1', 'SK-MEL-2 melanoma', '> 100 µM'),
  ('COC(=O)c1ccccc1CC1Cc2cccc(C)c2C1=O (stereo not drawn)', 'SK-MEL-2 melanoma', '53.2 µM'),
  ('CC(C)C1CN(C(=O)OCc2ccccc2)C2N1C(=O)C2(C)OCc1ccccc1 (stereo not drawn)', 'SK-MEL-2 melanoma', '73.5 µM');

Memo: `CC12c3c4ccc(C=O)c3Oc3ccc(C=O)c(c31)Oc1ccc(C=O)c(c12)O4` , reported TGI: > 25 µM

Memo: `CCC(C)(C)n1c(C)nc2c1C(=O)c1ccccc1C2=O` , reported TGI: 42.3 µM

Memo: `C[C@H](CCOc1cccc(CC(=O)O)c1)N(Cc1cccc(C(F)(F)F)c1Cl)CC(c1ccccc1)c1ccccc1` , reported TGI: 28.2 µM

Memo: `COCOCCC#CCO` , reported TGI: > 100 µM

Memo: COc1ccc(N2C(=O)C3c4[nH]c5cc(C)ccc5c4C4CCC(C(C)(C)C)CC4C3C2=O)cc1 (stereo not drawn) , reported TGI: > 10 µM

Memo: `CN1CCN(Cc2cc3c(nn2)-c2ccccc2C3=O)CC1` , reported TGI: > 100 µM

Memo: `COC(=O)C1=CN(CC2=CC(=O)C(C)=CC2=O)C=C(C(=O)OC)C1c1ccccc1OC` , reported TGI: > 100 µM

Memo: `C[N+](C)(C)CC(=O)N/N=C(/Cc1cc(=O)oc2cc(O)ccc12)C(=O)Nc1ccc(Cl)cc1` , reported TGI: > 100 µM

Memo: `CNCCCNc1ccnc2cc(Cl)ccc12` , reported TGI: 37.9 µM
